Recorded values, source patent US20240408169A1.

# tested.target: CyclinA2/CDK2 (Homo sapiens)
# Construct: purchased CRELUX Protein Services
# experiment.description: Fluorescence Polarization (FP) competitive binding assay, Cyclin A2/Cdk2;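 note: plates equilibrated two hours at room temperature before polarization reading, IC50 fitted from eight-concentration compound titration curves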
# run.conditions: 8 nM Cyclin A2/Cdk2, 2 nM FAM probe; average of 2-3 independent experiments; read-out: Cyclin A FP IC50
*1 amine or outer side, *2 acyl side, *3 side chain or, on linkers, in order; H or OH if unused. Where a SMILES comes first, the peptide text is derived from it. Bridges are numbered along the chain shown (N, C = ends). [ ]: non-standard residue; d: D form. The star is where a group is joined. X103 = CN1CCC(Oc2ccc(-c3ccc(Cl)cc3C[C@@H](C(=O)[*:2])N(C)[*:1])cc2)CC1; NMehhhLys(Me) = CN([C@@H](CCCCCCCN(C)[*:3])C(=O)[*:2])[*:1]; cBuCO(3,3-F2-1-CF3) = O=C(C1(C(F)(F)F)CC(F)(F)C1)*; X25 = CCOc1ncc(Cl)cc1C[C@@H](C(=O)[*:2])N(C)[*:1]; Pro(trans-4-F) = O=C(O)[C@@H]1C[C@@H](F)CN1; Pivaloyl(3,3,3-F3) = CC(C)(C(=O)*)C(F)(F)F; Gly(cPr) = N[C@H](C(=O)O)C1CC1
measured.quantity: pIC50
Reminder that pIC50 is minus the log10 of a molar concentration.

// query pIC50 value for entry CC(C)C[C@@H]1NC(=O)[C@@H](N(C)C(=O)[C@@H](NC(=O)[C@@H]2C[C@@H](F)CN2C(=O)C2(C(F)(F)F)CC(F)(F)C2)C2CC2)CCCCCCCN(C)C(=O)[C@H](Cc2cc(Cl)ccc2-c2ccc(OC3CCN(C)CC3)cc2)N(C)C1=O [Example 371] ({cBuCO(3,3-F2-1-CF3)}-[Pro(trans-4-F)][Gly(cPr)][NMehhhLys(Me)]L[X103]; lactam 3-C)
7.70

// query pIC50 value for entry `CC(C)C[C@@H]1NC(=O)[C@@H](N(C)C(=O)[C@@H](NC(=O)[C@@H]2C[C@@H](F)CN2C(=O)C2(C(F)(F)F)CC(F)(F)C2)C2CC2)CC=CCCCCN(C)C(=O)[C@H](Cc2cc(Cl)ccc2Oc2ncccn2)N(C)C1=O`
6.33

// query pIC50 value for entry CCOc1ncc(Cl)cc1C[C@H]1C(=O)N(C)CCCCCCC[C@H](N(C)C(=O)[C@@H](NC(=O)[C@@H]2C[C@@H](F)CN2C(=O)C(C)(C)C(F)(F)F)C2CC2)C(=O)N[C@@H](CC(C)C)C(=O)N1C [Example 269] ({Pivaloyl(3,3,3-F3)}-[Pro(trans-4-F)][Gly(cPr)][NMehhhLys(Me)]L[X25]; lactam 3-C)
7.22

====

Would you kindly list IC50 for each of these molecules?
# tested.target: CyclinE1/CDK2 (Homo sapiens, UniProt P24864)
# Construct: purchased Eurofins, discovery 14-475
# experiment.description: Fluorescence Polarization (FP) competitive binding assay, Cyclin E1/Cdk2;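 note: readings taken after two-hour equilibration at room temperature in HEPES buffer with NaCl, DTT, NP-40 and BSA, IC50 fitted from eight-concentration serial dilution series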
# run.conditions: 10 nM Cyclin E1/Cdk2, 2 nM FAM probe; average of 2-3 independent experiments; read-out: Cyclin E FP IC50
*1 amine or outer side, *2 acyl side, *3 side chain or, on linkers, in order; H or OH if unused. Where a SMILES comes first, the peptide text is derived from it. Bridges are numbered along the chain shown (N, C = ends). [ ]: non-standard residue; d: D form. The star is where a group is joined. X73 = CN([C@@H](Cc1cc(Cl)ccc1-c1ccc(N2CCN(Cc3cnn(C)c3)CC2)cc1)C(=O)[*:2])[*:1]; X197 = CN([C@@H](Cc1cc(Cl)ccc1-c1ccc(=O)[nH]c1)C(=O)[*:2])[*:1]; NMehhhLys(Me) = CN([C@@H](CCCCCCCN(C)[*:3])C(=O)[*:2])[*:1]; NMe3Pal(2-OcPr,5-F) = CN[C@@H](Cc1cc(F)cnc1OC1CC1)C(=O)O; NMe(hhhLys) = CN([C@@H](CCCCCCCN[*:3])C(=O)[*:2])[*:1]; Cyclobutanecarbonyl(1-CF3) = O=C(C1(C(F)(F)F)CCC1)*; cBuCO(3,3-F2-1-CF3) = O=C(C1(C(F)(F)F)CC(F)(F)C1)*; Pro(trans-4-F) = O=C(O)[C@@H]1C[C@@H](F)CN1; Gly(cPr) = N[C@H](C(=O)O)C1CC1
Field: numeric (nM). Do not append units.

// query IC50 value for entry CC(C)C[C@@H]1NC(=O)[C@@H](N(C)C(=O)[C@@H](NC(=O)[C@@H]2C[C@@H](F)CN2C(=O)C2(C(F)(F)F)CC(F)(F)C2)C2CC2)CCCCCCCN(C)C(=O)[C@H](Cc2cc(Cl)ccc2-c2ccc(=O)[nH]c2)N(C)C1=O [Example 180] ({cBuCO(3,3-F2-1-CF3)}-[Pro(trans-4-F)][Gly(cPr)][NMehhhLys(Me)]L[X197]; lactam 3-C)
1860

// query IC50 value for entry CC(C)C[C@@H]1NC(=O)[C@@H](N(C)C(=O)[C@@H](NC(=O)[C@@H]2C[C@@H](F)CN2C(=O)C2(C(F)(F)F)CC(F)(F)C2)C2CC2)CCCCCCCN(C)C(=O)[C@H](Cc2cc(Cl)ccc2-c2ccc(N3CCN(Cc4cnn(C)c4)CC3)cc2)N(C)C1=O [Example 372] ({cBuCO(3,3-F2-1-CF3)}-[Pro(trans-4-F)][Gly(cPr)][NMehhhLys(Me)]L[X73]; lactam 3-C)
430

// query IC50 value for entry CC(C)C[C@@H]1NC(=O)[C@@H](N(C)C(=O)[C@@H](NC(=O)[C@@H]2C[C@@H](F)CN2C(=O)C2(C(F)(F)F)CCC2)C2CC2)CCCCCCCNC(=O)[C@H](Cc2cc(F)cnc2OC2CC2)N(C)C1=O [Example 134] ({Cyclobutanecarbonyl(1-CF3)}-[Pro(trans-4-F)][Gly(cPr)][NMe(hhhLys)]L[NMe3Pal(2-OcPr,5-F)]; lactam 3-C)
120
